Ref: patent US5700804A

Below, each of the molecules is paired with its reported Inhibition of PAI-1 in the first S2251 chromogenic substrate assay value.
- Assayed Target: PAI-1 (Homo sapiens)
- Sequence (P05121 24-402): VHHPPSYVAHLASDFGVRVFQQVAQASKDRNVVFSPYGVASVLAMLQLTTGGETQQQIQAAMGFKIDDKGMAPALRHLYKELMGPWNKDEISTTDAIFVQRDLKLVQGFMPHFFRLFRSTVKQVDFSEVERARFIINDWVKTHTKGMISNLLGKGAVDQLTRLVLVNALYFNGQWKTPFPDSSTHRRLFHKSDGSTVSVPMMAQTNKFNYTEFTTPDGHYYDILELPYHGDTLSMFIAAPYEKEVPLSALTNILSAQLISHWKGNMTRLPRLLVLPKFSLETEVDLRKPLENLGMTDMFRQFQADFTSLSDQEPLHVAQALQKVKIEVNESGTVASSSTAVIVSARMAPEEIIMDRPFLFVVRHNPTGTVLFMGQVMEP
- Measurement Description: PAI chromogenic substrate assay (first S2251 assay, tPA/plasminogen system)
- Format: biochemical
- Test Parameters: Concentration 12.5 μm
Field: numeric (%). Do not append units.

Query :: Provide Inhibition of PAI-1 in the first S2251 chromogenic substrate assay value for the following molecule: COC(=O)Nc1ccc(/C=c2\[nH]c(=O)/c(=C/c3ccc(OC)cc3)[nH]c2=O)cc1
Result :: 1

Query :: Provide Inhibition of PAI-1 in the first S2251 chromogenic substrate assay value for the following molecule: COc1ccc(/C=c2\[nH]c(=O)/c(=C/c3ccc(O)cc3Cl)[nH]c2=O)cc1
Result :: 2

Query :: Provide Inhibition of PAI-1 in the first S2251 chromogenic substrate assay value for the following molecule: Nc1ccccc1/C=c1\[nH]c(=O)/c(=C/c2ccccc2)[nH]c1=O
Result :: 1
